- systemUnderTest: human CD33 S54A (human, UniProt P20138 18-364)
- Sequence (P20138 18-364 S54A limits assumed): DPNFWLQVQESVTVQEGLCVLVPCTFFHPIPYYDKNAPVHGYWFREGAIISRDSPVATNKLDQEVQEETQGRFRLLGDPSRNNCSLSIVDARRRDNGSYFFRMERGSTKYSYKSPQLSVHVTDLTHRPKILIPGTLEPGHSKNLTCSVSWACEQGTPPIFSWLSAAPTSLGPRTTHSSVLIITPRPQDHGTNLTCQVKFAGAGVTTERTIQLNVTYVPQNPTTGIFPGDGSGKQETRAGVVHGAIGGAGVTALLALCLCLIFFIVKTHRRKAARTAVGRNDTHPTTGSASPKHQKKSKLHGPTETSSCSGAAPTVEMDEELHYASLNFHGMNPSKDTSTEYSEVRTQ
- assayDetails: alanine scan, flow cytometry;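 note: HEK293-T cells transiently expressing single-residue alanine mutants of CD33 (alanine swapped to serine), antibody binding read by fluorescence in duplicate, background-subtracted, expressed relative to wild-type CD33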
readoutLabel: Mean % WT Binding (% WT)

# binder, uom, testValue
measured = [
    ("Refmab #4 (antibody, V domains shown, Full-length format is human IgG1 Fc silent (PG-LALA); The alanine scan used IgG or Fab) VH: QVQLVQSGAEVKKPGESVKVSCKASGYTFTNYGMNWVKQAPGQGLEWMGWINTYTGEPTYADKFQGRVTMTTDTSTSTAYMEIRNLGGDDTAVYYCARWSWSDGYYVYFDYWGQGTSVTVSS VL: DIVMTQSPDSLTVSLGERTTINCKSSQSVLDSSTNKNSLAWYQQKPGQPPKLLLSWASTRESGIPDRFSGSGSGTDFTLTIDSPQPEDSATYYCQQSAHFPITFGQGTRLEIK", "% WT", 99.9),
    ("Refmab #3 (antibody, V domains shown, Full-length format is human IgG1 Fc silent (PG-LALA); The alanine scan used IgG or Fab) VH: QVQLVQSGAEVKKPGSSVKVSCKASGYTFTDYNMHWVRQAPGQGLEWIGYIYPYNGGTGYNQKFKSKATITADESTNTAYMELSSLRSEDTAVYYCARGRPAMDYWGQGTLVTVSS VL: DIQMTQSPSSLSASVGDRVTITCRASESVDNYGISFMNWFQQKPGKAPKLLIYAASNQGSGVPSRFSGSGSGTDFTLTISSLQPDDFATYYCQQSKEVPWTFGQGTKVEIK", "% WT", 106),
    ("Refmab #2 (antibody, V domains shown, Full-length format is human IgG1 Fc silent (PG-LALA); The alanine scan used IgG or Fab) VH: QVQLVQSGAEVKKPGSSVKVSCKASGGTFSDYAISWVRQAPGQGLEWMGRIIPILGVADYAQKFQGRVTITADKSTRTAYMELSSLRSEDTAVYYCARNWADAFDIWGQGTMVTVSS VL: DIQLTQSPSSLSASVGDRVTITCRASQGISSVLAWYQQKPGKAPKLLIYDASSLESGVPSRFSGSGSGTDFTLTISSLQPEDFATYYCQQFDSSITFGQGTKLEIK", "% WT", 112),
    ("Refmab #1 (antibody, V domains shown, Full-length format is human IgG1 (Absolute Antibody Ab00283-10.0); The alanine scan used IgG or Fab; also called hP67.6) VH: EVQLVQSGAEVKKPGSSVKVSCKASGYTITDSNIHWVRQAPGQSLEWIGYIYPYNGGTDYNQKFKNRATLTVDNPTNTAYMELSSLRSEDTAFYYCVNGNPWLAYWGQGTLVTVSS VL: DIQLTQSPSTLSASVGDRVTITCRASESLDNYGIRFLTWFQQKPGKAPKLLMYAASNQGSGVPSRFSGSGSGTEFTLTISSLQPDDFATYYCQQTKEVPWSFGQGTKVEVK", "% WT", 87.6),
]
